Reference for the values: PubChem BioAssay AID280

T/C values, listed per item
- Test system: nude mice, LOX melanoma ip, survival T/C
- assay.text: NCI In Vivo Anticancer Drug Screen. Data for tumor model Human Amelanotic Melanoma (LOX) (intraperitoneal) in NU/NU BALB/C (nude) mice
- protocol.conditions: endpoint: median survival time; dose: 25.0 mg/kg/injection; schedule: Q04DX003 (ip); vehicle: water; higher = longer survival
Toxic doses and inconclusive results are not listed.

compound | T/C
NC(CNC(=O)CBr)C(=O)O (stereo not given) | 93 % of control
O=C(O)c1cc(C(=O)O)c(C(=O)O)cc1C(=O)O.[NH2-].[NH2-].[NH2-].[NH2-].[Pt+2].[Pt+2] | 115 % of control
CC1(O)C=CC(=O)C=C1 | 105 % of control
CN1CCN(CN2C(=O)C3C4C=CC(C3C2=O)C2C3C(=O)N(CN5CCN(C)CC5)C(=O)C3C42)CC1 (stereo not given) | 109 % of control
NC(Cc1ccccc1)C(=O)OCN1C(=O)C2C3C=CC(C2C1=O)C1C2C(=O)N(COC(=O)C(N)Cc4ccccc4)C(=O)C2C31 (stereo not given) | 105 % of control

----------
- Tested on: nude mice, LOX melanoma ip, survival T/C
- assay.text: NCI In Vivo Anticancer Drug Screen. Data for tumor model Human Amelanotic Melanoma (LOX) (intraperitoneal) in NU/NU BALB/C (nude) mice
- protocol.conditions: endpoint: median survival time; dose: 300.0 mg/kg/injection; schedule: Q04DX003 (ip); vehicle: saline with Tween-80
- Description: The antitumor activity of compounds was measured in mice bearing transplantable tumors. Survival or tumor size were measured and the results are expressed as the measurement made in the treated group (T) divided by the measurement made in the vehicle treated control group (C). The tumor model used in this assay is Human Amelanotic Melanoma (LOX) (intraperitoneal) in NU/NU BALB/C (nude) mice
Inconclusive results and toxic doses are left out. The calls were made as follows: active = survival T/C of 150% or more; inactive = T/C below 125% in these data.
Outcome codes: label 1 for active, label 0 for inactive

compound | tested.system | assigned.class
c1ccc(OCC2CO2)c(OCC2CO2)c1 (stereo not drawn) | nude mice, LOX melanoma ip, survival T/C | label 1
O=C(Nc1cc(Cl)ccc1C(=O)O)c1cccc(C[n+]2ccccc2)c1 | nude mice, LOX melanoma ip, survival T/C | label 0
CCOC(=O)C1=C(C)O/C(=C/c2cccc(Cl)c2)C1=O | nude mice, LOX melanoma ip, survival T/C | label 1

----------
- System: nude mice, LOX melanoma ip, survival T/C
- assay.text: NCI In Vivo Anticancer Drug Screen. Data for tumor model Human Amelanotic Melanoma (LOX) (intraperitoneal) in NU/NU BALB/C (nude) mice
- protocol.conditions: endpoint: median survival time; dose: 150.0 mg/kg/injection; schedule: Q04DX003 (ip); vehicle: saline with Tween-80
Toxic doses and inconclusive results are not listed. The calls were made as follows: active = survival T/C of 150% or more; inactive = T/C below 125% in these data.
Outcome codes: true (1) (active), false (0) (inactive)

molecule | assigned.class
COc1ccc(S(=O)(=O)N=N/C=C2\C=CC=CN2O)cc1OC | true (1)
COc1cc(C(C)c2cc3c(cc2OCCO)OCO3)cc(OC)c1OC (stereo not drawn) | false (0)
CCCCCCNc1nc(NCCCCCC)c2[nH]c(NCCCCCC)nc2n1 | false (0)

----------
T/C values, listed per item
- Tested on: nude mice, LOX melanoma ip, survival T/C
- assay.text: NCI In Vivo Anticancer Drug Screen. Data for tumor model Human Amelanotic Melanoma (LOX) (intraperitoneal) in NU/NU BALB/C (nude) mice
- protocol.conditions: endpoint: median survival time; dose: 12.5 mg/kg/injection; schedule: Q04DX003 (ip); vehicle: water; higher = longer survival
Inconclusive results and toxic doses are left out.

compound | T/C
CC1(O)C=CC(=O)C=C1 | 101 % of control
CN1CCN(CN2C(=O)C3C4C=CC(C3C2=O)C2C3C(=O)N(CN5CCN(C)CC5)C(=O)C3C42)CC1 (stereo not given) | 104 % of control
O=C(O)c1cc(C(=O)O)c(C(=O)O)cc1C(=O)O.[NH2-].[NH2-].[NH2-].[NH2-].[Pt+2].[Pt+2] | 104 % of control
O=NNc1cnccn1 | 110 % of control
NC(CNC(=O)CBr)C(=O)O (stereo not given) | 97 % of control
